system: CD3/CD28-stimulated effector cells (T cells from healthy donors' PBMCs); experiment: T cell proliferation assay (3H thymidine incorporation), CD3/CD28-stimulated T cells; type: cell-based, human; details: log[Agonist], μM: 2
Thymidine incorporation(CPM) values for the compounds below.
observed property: Thymidine incorporation(CPM)

C[C@H]1Oc2cc(cnc2N)-c2c(nn(C)c2C#N)CN(C)C(=O)c2ccc(F)cc21 ... 258875.3
C[C@@H](Oc1cc(-c2cnn(C3CCNCC3)c2)cnc1N)c1c(Cl)ccc(F)c1Cl ... 270672.7
CCN(CC)CCNC(=O)c1c(C)[nH]c(/C=C2\C(=O)Nc3ccc(F)cc32)c1C ... 117.3333
CNC(=O)c1ccccc1Sc1ccc2c(/C=C/c3ccccn3)n[nH]c2c1 ... 300379.3

###

tested on: CD3/CD28-stimulated effector cells (T cells from healthy donors' PBMCs); experiment: T cell proliferation assay (3H thymidine incorporation), CD3/CD28-stimulated T cells; assay type: cell-based, human; settings: log[Agonist], μM: −2
Thymidine incorporation(CPM) values for the molecules below.
observed property: Thymidine incorporation(CPM)

CNC(=O)c1ccccc1Sc1ccc2c(/C=C/c3ccccn3)n[nH]c2c1 [Axitinib, axitinib] ... 408592.3
CCN(CC)CCNC(=O)c1c(C)[nH]c(/C=C2\C(=O)Nc3ccc(F)cc32)c1C [Sunitinib, sunitinib] ... 444679.3
C[C@@H](Oc1cc(-c2cnn(C3CCNCC3)c2)cnc1N)c1c(Cl)ccc(F)c1Cl [crizotinib] ... 442995.3
C[C@H]1Oc2cc(cnc2N)-c2c(nn(C)c2C#N)CN(C)C(=O)c2ccc(F)cc21 [PF-06463922] ... 411422.3

###

test system: activated T cells; assay: T cell viability, Cell-Titer Glo Luminescent Cell Viability Assay; assay type: cell-based, human; conditions: log[Agonist], μM: −1
Luciferase RLU (T cell viability) values for the compounds below.
observed property: Luciferase RLU (T cell viability) (RLU)

CCN(CC)CCNC(=O)c1c(C)[nH]c(/C=C2\C(=O)Nc3ccc(F)cc32)c1C [Sunitinib, sunitinib] ... 91.57
C[C@@H](Oc1cc(-c2cnn(C3CCNCC3)c2)cnc1N)c1c(Cl)ccc(F)c1Cl [crizotinib] ... 95.6927
CNC(=O)c1ccccc1Sc1ccc2c(/C=C/c3ccccn3)n[nH]c2c1 [Axitinib, axitinib] ... 91.35
C[C@H]1Oc2cc(cnc2N)-c2c(nn(C)c2C#N)CN(C)C(=O)c2ccc(F)cc21 [PF-06463922] ... 97.8625

###

system: activated T cells; experiment: T cell viability, Cell-Titer Glo Luminescent Cell Viability Assay; format: cell-based, human; conditions: log[Agonist], μM: 1
Luciferase RLU (T cell viability) values for the molecules below.
observed property: Luciferase RLU (T cell viability) (RLU)

C[C@H]1Oc2cc(cnc2N)-c2c(nn(C)c2C#N)CN(C)C(=O)c2ccc(F)cc21 ... 89.118
CNC(=O)c1ccccc1Sc1ccc2c(/C=C/c3ccccn3)n[nH]c2c1 ... 89.79
C[C@@H](Oc1cc(-c2cnn(C3CCNCC3)c2)cnc1N)c1c(Cl)ccc(F)c1Cl ... 91.72
CCN(CC)CCNC(=O)c1c(C)[nH]c(/C=C2\C(=O)Nc3ccc(F)cc32)c1C ... 13.95
